Values were extracted from ChEMBL document CHEMBL1201862.

system: KM12; assay: NCI tumour cell line growth inhibition, 48 h
Activity calls are given as the source filed them. No stated cut-off is given here; in the data, active = GI50 up to about 1.1 µM and inactive = higher.
GI50 values for the molecules below.

Here is how some molecules turned out for GI50.
molecule	result
Cc1c(OC(C)C(=O)O)ccc2c(-c3ccccc3)cc(=O)oc12 (stereo not drawn)	> 100 µM (inactive)
CC(C)CCNc1ncnc2[nH]ncc12	48.6 µM (inactive)
CCOC(=O)C(=C(SC)SC)c1nn2c(=O)cc(C)nc2s1	33 µM (inactive)
Cc1cc2nc(-c3c(F)cccc3F)n(Cc3c(F)cccc3F)c2cc1C	14.8 µM (inactive)
O=C(N/N=C/c1ccccc1)c1cccc2nc3ccccc3nc12	54 µM (inactive)

Form entry - test system: KM12; read-out: GI50; molecule: COc1cc(C)c(CC/C(C)=C/Cc2cc(O)ccc2O)c(C)c1C [PANICEIN A HYDROQUINONE]
> 25 µM (inactive)

Tell me reported GI50 for C/C(=N\O)c1cccc(Nc2c3ccccc3nc3occc23)c1 , tested with KM12.
6.11 µM (inactive)

Query for KM12: what GI50 does the record show for N#Cc1nc(C(O)c2ccccc2)oc1N (stereo not drawn) ?
> 100 µM (inactive)

* * *

tested on: HL-60; assay: NCI tumour cell line growth inhibition, 48 h
The source made the active and inactive calls. Cut-off read from the data, not from the text of the source: active = GI50 up to about 1.1 µM and inactive = higher.
In this exercise, the only acceptable responses are active, inactive

molecule	classification
Cn1c2ccccc2c(=O)c2cccc(C(=O)NC(CS)C(=O)O)c21 (stereo not drawn)	active

Recorded call for O=C1/C(=C/c2cccs2)N=C(c2ccccc2)N1c1nc2ccccc2s1 ?
inactive

Fill in: this test's call for O=c1oc2ccc(-n3c(=O)c4ccccc4c4ccccc4c3=O)cc2c2ccccc12 is ___
inactive

Hi, sorry to bother you, what did the test record for CCOC(=O)CCC(NC(=O)OCc1ccccc1)C(=O)NNC(=O)OC(C)(C)C (stereo not drawn) ?
inactive

Look up the recorded call for O=c1c2cccnc2[s+]([O-])n1Cc1ccccc1 (stereo not drawn) in this test.
inactive

How was C=CC(=O)N1C/C(=C\c2ccc(OC)cc2)C(=O)/C(=C/c2ccc(OC)cc2)C1 classified in this test?
active

* * *

tested on: RPMI-8226; experiment: NCI tumour cell line growth inhibition, 48 h
Calls of active or inactive are those of the source. Cut-off read from the data, not from the text of the source: active = GI50 up to about 1.1 µM and inactive = higher.
Write down one outcome, taken from active, inactive

Short answer needed: outcome of this test for CCOC(=O)c1c(NCc2ccccc2)n(-c2ccccc2)c(=S)n(-c2ccccc2)c1=O ?
inactive

Called result for Nc1ccc(S(=O)(=O)Nc2cnc3ccccc3n2)cc1
inactive

Kindly provide the recorded test outcome for the following compound: CCOC(=O)N1CCN(c2nc(C)n(-c3ccccc3)c(=S)c2C#N)CC1
inactive

* * *

Entries and their GI50
test system: U-251; test: NCI tumour cell line growth inhibition, 48 h
Calls of active or inactive are those of the source. Cut-off read from the data, not from the text of the source: active = GI50 up to about 1.1 µM and inactive = higher.

compound	GI50
COc1cc2cnc3c4cc(OC(C)C)c(OC)cc4ccc3c2cc1OC	> 100 µM (inactive)
CC1C(=O)OCC2=CCN3CCC(OC(=O)C(C)C1(C)O)C23 (stereo not given)	> 100 µM (inactive)
CCOC(=O)C1C(=O)CC1(C)C (stereo not given)	> 10 µM (inactive)

Value lookup for GI50; key = Oc1ccc(-c2nc3cc(C(F)(F)F)ccc3n2CC2CCCN3CCCCC23)cc1 (stereo not given)
14.8 µM (inactive)

State the recorded GI50 for this entry: C[C@H]1C(OCCOC2O[C@@H]3O[C@@]4(C)CC[C@H]5[C@H](C)CCC([C@H]2C)[C@@]35O4)O[C@@H]2O[C@@]3(C)CC[C@H]4[C@H](C)CCC1[C@@]24O3 (stereo not given in full)
40.9 µM (inactive)

* * *

Property: GI50; scope: individual molecules
tested on: SF-295; experiment: NCI tumour cell line growth inhibition, 48 h
Calls of active or inactive are those of the source. Rule as the data show it: active = GI50 up to about 1.1 µM and inactive = higher.

molecule	endpoint_label	result
CC1(C)CCCCCCC2OC2CCCCCC(C)(C)C1=O (centres undefined)	GI50	31.2 µM (inactive)
O=S(=O)(N1CCCCN(S(=O)(=O)C(F)(F)F)CCCN(S(=O)(=O)C(F)(F)F)CCCCN(S(=O)(=O)C(F)(F)F)CCCN(S(=O)(=O)C(F)(F)F)CCCCN(S(=O)(=O)C(F)(F)F)CCCN(S(=O)(=O)C(F)(F)F)CCCCN(S(=O)(=O)C(F)(F)F)CCC1)C(F)(F)F	GI50	> 31.6 µM (inactive)
CC1C(=O)OCC2=CCN3CCC(OC(=O)C(C)C1(C)O)C23 (centres undefined)	GI50	> 100 µM (inactive)

Let us move to another entry and its GI50.
Need GI50, item N#CC(C(=O)Nc1ccccc1)C1=C(Cl)C(=O)c2ccccc2C1=O (centres undefined)
17.9 µM (inactive)

* * *

tested on: A549; assay: NCI tumour cell line growth inhibition, 48 h
Calls of active or inactive are those of the source. Cut-off read from the data, not from the text of the source: active = GI50 up to about 1.1 µM and inactive = higher.
endpoint_label: GI50

Which GI50 is reported with A549 for this entry: COC(=O)N[C@@H]1C[C@H]2CC[C@]1(O[Si](C(C)C)(C(C)C)C(C)C)C(=O)C2 ?
14.3 µM (inactive)

Hi! What's the reported GI50 for COC(=O)N1C[C@@]2(C=CC3(CC2)OCCO3)c2ccccc21 on A549?
> 100 µM (inactive)

Please provide the recorded GI50 for NCC(Cl)C(O)c1c[nH]c(N)n1 (configuration not stated) , tested on A549.
0.136 µM (active)

API: value(readout=GI50, system=A549) for record CSc1sc(C)cc1-c1nsc(=O)o1
> 100 µM (inactive)

Form entry - test system: A549; read-out: GI50; molecule: CN(C)/C=C/C(=O)c1cccc(C(=O)/C=C/N(C)C)n1
> 100 µM (inactive)

API: value(readout= GI50, system= A549, query= NC(=O)OCC(COc1ccc(Cl)cc1)OC(=O)c1cc([N+](=O)[O-])cc([N+](=O)[O-])c1 (configuration not stated) )
> 100 µM (inactive)

Form: Entry = COc1nc(N=P(c2ccccc2)(c2ccccc2)c2ccccc2)cc(=O)n1C | System = A549 | GI50 = ____
> 100 µM (inactive)

* * *

Target or system HCT-15; recorded quantity GI50.

# value lookup — system HCT-15, readout GI50, item CCCC[Si](CCCC)(CCCC)O[C@@H](/C=C/C(=O)OCC)[C@H](Cc1ccccc1)O[Si](CCCC)(CCCC)CCCC
> 100 µM

Give the reported GI50 for O=C(O/N=c1/ccc(=O)/c(=N\OC(=O)c2ccccc2)c1=O)c1ccccc1 (system: HCT-15).
> 100 µM

Notebook: pull reported GI50 for HCT-15, entry c1cc2cc(c1)CN1CCNCCN(CCNCC1)Cc1cccc(c1)CN1CCNCCN(CCNCC1)C2
> 100 µM

What measured GI50 is associated with COc1ccc(/C=N\N2CC(=O)N3C4C=CC(CC4)N3C2=O)cc1 (stereo unspecified) on HCT-15?
> 100 µM

GI50 of Cn1c2ccccc2c(=O)c2cccc(C(=O)NC(CS)C(=O)O)c21 (stereo unspecified) on HCT-15?
> 100 µM

Identify the measured GI50 of COc1cc2oc(-c3ccc4c(c3)OCO4)c(OC)c(=O)c2c(O)c1OC for HCT-15.
> 50 µM

* * *

test system: SK-MEL-5; test: NCI tumour cell line growth inhibition, 48 h
The source made the active and inactive calls. No stated cut-off is given here; in the data, active = GI50 up to about 1.1 µM and inactive = higher.
endpoint_label: GI50

Worked examples, 4 compounds total:
compound	GI50
O=C1O[C@H](c2ccccc2)[C@@H]2CC3(CCN12)OCCO3	> 100 µM (inactive)
O=C(O)c1c([N+](=O)[O-])cc(C(F)(F)F)cc1[N+](=O)[O-]	> 100 µM (inactive)
Cc1c2ccnc(O)c2cc2c(=O)c3cnccc3[nH]c12	> 100 µM (inactive)
C[C@]12CC[C@H](O)C[C@H]1CC[C@@H]1[C@@H]2CC[C@]2(C)[C@@H](C3=CC(=O)OC3)[C@@H](O)C[C@]12O [GITOXIGENIN]	1.3 µM (inactive)

Shifting focus to the compound that follows.
Query for SK-MEL-5: what GI50 does the record show for COc1ccc2c(c1)CC[C@@H]1[C@@H]2CC[C@]2(C)C(=O)/C(=C/c3ccc(OC)c(OC)c3)C[C@@H]12 ?
> 100 µM (inactive)

* * *

system: NCI-H23; assay: NCI tumour cell line growth inhibition, 48 h
Active and inactive are the calls of the source. Cut-off read from the data, not from the text of the source: active = GI50 up to about 1.1 µM and inactive = higher.
Entries and their GI50 values follow.

compound	result
C[C@]12[C@@H]3CC[C@H]1[C@@H](O)C(=O)N2CC3	> 100 µM (inactive)
O=S(=O)(N1CCCCN(S(=O)(=O)C(F)(F)F)CCCN(S(=O)(=O)C(F)(F)F)CCCCN(S(=O)(=O)C(F)(F)F)CCCN(S(=O)(=O)C(F)(F)F)CCCCN(S(=O)(=O)C(F)(F)F)CCCN(S(=O)(=O)C(F)(F)F)CCCCN(S(=O)(=O)C(F)(F)F)CCC1)C(F)(F)F	> 31.6 µM (inactive)
O=C(O)CNC(=O)C1NC(C(F)(F)F)(C(F)(F)F)OC1(C(F)(F)F)C(F)(F)F (stereo unspecified)	> 100 µM (inactive)
CCOCc1nc2c(OC)c(-c3nc4ccc(N5CCN(C)CC5)cc4[nH]3)cc(OC)c2[nH]1	37.8 µM (inactive)

Fill in the recorded GI50 for this compound, with NCI-H23 as test system: O=c1c2ccccc2[nH]c2c(Cl)cc(Cl)c(NC3CCCCC3)c12
17 µM (inactive)

Field: GI50 (NCI-H23). Entry: CCC12CC[C@H](C#N)N3CCc4c(n(c5ccccc45)C(=O)C1)C32 (stereo partly specified)
15.4 µM (inactive)
